- Test system: Klebsiella aerogenes
- testProtocol: Antimicrobial activity against Klebsiella aerogenes harboring beta-lactamase SHV-1 1976E mutant after 18 hrs by twofold agar dilution method
- Type: functional
endpointLabel: MIC

Here is how some compounds turned out for MIC.
C[C@H](CO)[C@H]1CC[C@H]2[C@@H]3[C@H](F)C[C@H]4C[C@@H](NCCCNCCCCN)CC[C@]4(C)[C@H]3CC[C@]12C.Cl.Cl.Cl ... > 32 mg/L
C[C@H](CO)[C@H]1CC[C@H]2[C@@H]3CC[C@@H]4C[C@@H](NCCCNCCCCN)CC[C@]4(C)[C@H]3CC[C@]12C.Cl.Cl.Cl ... > 32 mg/L

**Q:** Field: MIC (Klebsiella aerogenes). Entry: "C[C@H](CO)[C@H]1CC[C@H]2[C@@H]3CC[C@@H]4C[C@H](NCCCNCCCCN)CC[C@]4(C)[C@H]3CC[C@]12C.Cl.Cl.Cl"
**A:** > 32 mg/L
